Origin of the recorded values: paper PMC12200682

experiment.summary: Pharmacokinetics of payload in mice
Set-up: species or system C57BL/6 mice
cond: C57BL/6, mouse, in vivo, iv, 0.5 mg/kg
property.label: clearance (mL/min/kg)
API: value field is a number in mL/min/kg; no unit string.

Any idea what its clearance is? The compound is CC[C@@]1(O)C(=O)OCc2c1cc1n(c2=O)Cc2c-1nc1cc(F)c(C)c3c1c2[C@@H](NC(=O)[C@H](O)C1CC1)CC3 72.6
